test system: SF-268 CNS; assay: NCI-60 one-dose screen, 48 h (100 = growth as untreated, 0 = no growth, -100 = all killed); conditions: 10 µM unless noted
This is part of a sample that, as a whole, favours compounds with a hit. Of some 83,000 tested, about 20% had one in any assay.
measurement_name: growth (%)
// return numeric value only (unit: %, not printed)

Task: // lookup growth | system=SF-268 CNS | key= COc1ccc(-c2nc3sc(C)cn3c2/C=C/C(=O)c2cc(OC)c(OC)c(OC)c2)cc1
Output: 73.4

Task: Also need COC(=O)[C@H]1CCCN1C(=O)[C@H]1CCCN1C(=O)[C@@H](Cc1c[nH]c2ccccc12)NC(=S)Nc1cc(C(F)(F)F)cc(C(F)(F)F)c1 , thanks.
Output: 36.1

Task: Also need O=C1CC2c3cc(-c4cc5ccccc5o4)ccc3CCN2C(=O)N1c1ccccc1 (stereo unspecified) , thanks.
Output: 92.4

Task: Also need COc1ccc(/C=C/C(=O)N2CCC(O)CC2)cc1OC1CCCC1 , thanks.
Output: 101

Task: Also need CCC(C)Oc1cc(/C=N/NC(=O)c2cnn3c2NC(c2ccccc2)C3)ccc1OC (stereo unspecified) , thanks.
Output: 44.7

Task: Also need Clc1ccc(Nc2nc(Nc3ccccc3)nc(Nc3ccc(-c4cc(-c5ccc(Cl)cc5)on4)cc3)n2)cc1 , thanks.
Output: 61.7

* * *

system: SK-MEL-5 melanoma; assay: NCI-60 one-dose screen, 48 h; details: 10 µM unless noted
Compounds without any hit were thinned out: in the full panel of roughly 83,000, 20% have a hit. The source made the active and inactive calls. How the source made its calls: active means growth percent below 10; inactive means the rest.
Select the correct class. Options are Yes (active), No (inactive) and nothing else.

Task: Short answer needed: outcome of this test for Nc1nc(N)c(N=Nc2c(Br)cc(S(N)(=O)=O)cc2Br)c(N)n1 ?
Output: No

Task: Also need O=S(=O)(Nc1ncccn1)c1ccc(Nc2ccc3nnc(-c4ccncc4)n3n2)cc1 , thanks.
Output: No

Task: Also need COc1cc(OCc2cccc(-c3ccc(C(O)c4nccs4)cc3)c2C)cc(OC)c1C=O (stereo not given) , thanks.
Output: Yes

Task: Also need Nc1cc(Br)c(-c2nnc(CCC(=O)c3nc4ccccc4[nH]3)o2)c(Br)c1 , thanks.
Output: No

Task: Also need C=C(C)CCCC(C)CC#N (stereo not given) , thanks.
Output: No

Task: Also need Cc1nn(-c2ccccc2)c2nc3nc4c(c(N)c3c(-c3ccc(Cl)cc3)c12)CCCC4 , thanks.
Output: No

Task: Also need COC(=O)c1c2c(c(C)[n+]([O-])c1C)C(=O)C=C(NCc1ccc(F)cc1)C2=O , thanks.
Output: Yes

Task: Also need COc1ccc(/C=C2\Oc3cc(C)c(Cl)cc3C2=O)cc1OC , thanks.
Output: No

Task: Also need COc1cc(CNCCN2C(=O)c3ccc4c5c(ccc(c35)C2=O)C(=O)N(CCNCc2cc(OC)c(OC)c(OC)c2)C4=O)cc(OC)c1OC , thanks.
Output: Yes

Task: Also need Cc1ccc(C)c2c1sc1nc3nc4sc5ccccc5n4c(=N)c3c(=O)n12 , thanks.
Output: No

Task: Also need COc1ccc(/C=C/C(=O)N2CCC(O)CC2)cc1OC1CCCC1 , thanks.
Output: No

Task: Also need COc1ccc2c(c1)c(=O)oc1c(C)c(OCC(C)=O)ccc12 , thanks.
Output: No

Task: Also need CCCCCCCC/C=C\CCCCCCCCOc1cccc(CC(=O)NCC[N+]2(C)CCOCC2)c1 , thanks.
Output: No

Task: Also need COC(=O)CCC(=O)c1ccccc1 , thanks.
Output: No

Task: Also need COc1ccc(-c2cc(=O)oc3c4c(ccc23)OCN(Cc2ccc(F)cc2)C4)cc1 , thanks.
Output: Yes

Task: Also need Cc1nn2c(-c3nc4ccc(Cl)cc4[nH]3)c(-c3ccc(F)cc3)nc2s1 , thanks.
Output: No

Task: Also need c1ccc2cc(-c3n(Cc4ccc5ccccc5n4)c4ccccc4[n+]3Cc3ccc4ccccc4n3)ccc2c1 , thanks.
Output: Yes

Task: Also need CC1(C)N=C(N)N=C(N)N1c1cccc(/C=C/C=C/c2cccc([N+](=O)[O-])c2)c1 , thanks.
Output: No

Task: Also need Cc1ccccc1-n1nnc(C(=O)Nc2nc(-c3ccccc3)c(-c3ccccc3)s2)c1C , thanks.
Output: No

Task: Also need COc1ccc(C2CC(c3cc(OC)c(OC)c(OC)c3)=NN2c2ccc(S(N)(=O)=O)cc2)cc1 (stereo not given) , thanks.
Output: No

* * *

tested on: OVCAR-3 ovarian; experiment: NCI-60 one-dose screen, 48 h; details: 10 µM unless noted
Compounds without any hit were thinned out: in the full panel of roughly 83,000, 20% have a hit. Calls of active or inactive are those of the source. Rule for the calls: active = growth percent below 10; inactive = the rest.
Select the correct class. Options are active, inactive and nothing else.

Task: Short answer needed: outcome of this test for COc1cc(Cn2cc(F)c(=O)[nH]c2=O)cc(OC)c1 ?
Output: inactive

Task: Also need Cn1c2ccccc2c2nn(C(=O)c3ccccc3)c(=O)nc21 , thanks.
Output: inactive

Task: Also need COc1cc(CNCCN2C(=O)c3ccc4c5c(ccc(c35)C2=O)C(=O)N(CCNCc2cc(OC)c(OC)c(OC)c2)C4=O)cc(OC)c1OC , thanks.
Output: active

Task: Also need COc1ccccc1/C=C/C(=O)/C=C/c1ccccc1O , thanks.
Output: active

Task: Also need COc1ccc(-c2nn(-c3ccc(NC(=O)c4ccc(Cl)c(Cl)c4)cc3)cc2-c2ccncc2)cc1Cl , thanks.
Output: inactive

Task: Also need COc1cc(/C=C2\C(=O)N(c3c(Cl)cccc3Cl)c3ccccc32)cc(OC)c1O , thanks.
Output: inactive

Task: Also need Cc1ccc(N=c2nc3sc4c(C)ccc(C)c4n3c(N)c2C#N)cc1 , thanks.
Output: inactive

Task: Also need O=[N+]([O-])c1ccc(O)c2ncccc12 , thanks.
Output: inactive

Task: Also need CC(C)(C)[Si](C)(C)OC1[C@@H](O[Si](C)(C)C(C)(C)C)[C@@H](CNC(=O)NC(=O)C(F)(F)F)O[C@H]1n1cnc2c(NC(=O)Nc3ccccc3)ncnc21 (stereo partly specified) , thanks.
Output: active

Task: Also need O=c1[nH]c(=S)c2c(n1CCCO)CCC2 , thanks.
Output: inactive

Task: Also need CCOc1ccc(-c2cnnn2-c2nonc2-n2cccc2)cc1 , thanks.
Output: active

Task: Also need Fc1ccccc1Nc1ccc2nnc(-c3ccncc3)n2n1 , thanks.
Output: inactive

Task: Also need Cc1c(C)n(CC(O)CNC2CCCCC2C)c2ccccc12 (stereo unspecified) , thanks.
Output: active

Task: Also need COc1cc(-c2ccc3cc(OC)c(OC)c(OC)c3c2)cc(OC)c1OC , thanks.
Output: inactive

Task: Also need O=C(COc1ccc(/C=C2\CSc3ccccc3C2=O)cc1)c1ccc(Cl)cc1 , thanks.
Output: inactive

Task: Also need CN1CCN(C(=O)OCCOCCOC(=O)N2CCN(C)CC2)CC1 , thanks.
Output: inactive

Task: Also need O=C1OCC2=C1C(c1ccc3c(c1)OCO3)CC(=O)N2c1cccc(Cl)c1 (stereo unspecified) , thanks.
Output: inactive

Task: Also need CC(C)(C)[Si](C)(C)OC1[C@@H](COC(=O)NC(=O)CCl)O[C@@H](n2cnc3c(N)ncnc32)[C@H]1O[Si](C)(C)C(C)(C)C (stereo partly specified) , thanks.
Output: active

Task: Also need CS(=O)(=O)Nc1cccc(C(=O)NCc2ccc(N3CCOCC3)cc2)c1 , thanks.
Output: inactive

Task: Also need COc1ccc(/C=C(\C#N)c2cc3ccccc3n2C)cc1 , thanks.
Output: active

Task: Also need C(=C\c1ccccc1)/CN1CCN(C(c2ccccc2)c2ccccc2)CC1 , thanks.
Output: inactive

* * *

test system: TK-10 renal; experiment: NCI-60 one-dose screen, 48 h (100 = growth as untreated, 0 = no growth, -100 = all killed); settings: 10 µM unless noted
The panel holds about 83,000 compounds, 20% with a hit somewhere; the sample as a whole holds those more often.
Would you mind telling me the reported growth of each entry?
// return numeric value only (unit: %, not printed)

Task: What does the data say about its growth? Entry: COc1ccc(-c2c3c(N)c4c(nc3nc3c2c(C)nn3-c2ccccc2)CCCC4)cc1
Output: 86.8

Task: Also need C=C1CC[C@@H]2[C@@](C)(CCC[C@]2(C)C(=O)O)[C@@H]1CC[C@H](CO)CCO , thanks.
Output: 99.4

Task: Also need COc1ccc(C2CC(c3cc(OC)c(OC)c(OC)c3)=NN2c2ccc(S(N)(=O)=O)cc2)cc1 (centres undefined) , thanks.
Output: 66.4

Task: Also need Cc1c(C)n(CC(O)CNC2CCCCC2C)c2ccccc12 (centres undefined) , thanks.
Output: -76.3

Task: Also need Cc1nc2cc(Nc3nc(Nc4ccc(F)cc4)nc(-c4cccs4)n3)ccc2n1Cc1ccccc1 , thanks.
Output: 62.7

Task: Also need Cc1ccc(N(CSc2ccc(Cl)cc2)CSc2ccc(Cl)cc2)cc1 , thanks.
Output: 92.2

Task: Also need Clc1ccc2c(c1)C[C@H]1C[C@@H](c3cccs3)N2O1 , thanks.
Output: 104

Task: Also need Cl.Fc1c[c-]c(-c2ccccn2)c(F)c1.[Pt].c1ccc([PH+](CC[PH+](c2ccccc2)c2ccccc2)c2ccccc2)cc1 , thanks.
Output: -83.7

Task: Also need Cc1nc2cc(Nc3nc(N4CCOCC4)nc(N4CCN(C)CC4)n3)ccc2n1Cc1ccccc1 , thanks.
Output: 106
